Reported Kb by item:
target of assay: thromboxane receptor sites (Cavia porcellus)
Construct: from tissue; host or cells: guinea pig trachea, spiral strips
Sequence (A0A286Y4I8 1-347): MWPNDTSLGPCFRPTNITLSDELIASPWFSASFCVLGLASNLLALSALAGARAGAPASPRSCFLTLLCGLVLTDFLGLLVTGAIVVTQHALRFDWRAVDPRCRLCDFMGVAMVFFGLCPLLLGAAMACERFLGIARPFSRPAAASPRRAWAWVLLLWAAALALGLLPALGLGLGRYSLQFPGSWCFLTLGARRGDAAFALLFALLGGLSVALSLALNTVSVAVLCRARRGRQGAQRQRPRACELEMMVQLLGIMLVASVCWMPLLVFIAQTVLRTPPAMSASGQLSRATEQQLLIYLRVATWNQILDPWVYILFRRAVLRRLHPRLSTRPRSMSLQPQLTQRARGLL
procedure details: Guinea Pig Trachea System (inhibition of tension response of spiral strips of trachea to 11,9-(epoxymethano) PGH2)
Format: cell-based
applied conditions: Gaddum-Schild Equation; agonist 11,9-(epoxymethano) PGH2; atropine sulphate and indomethacin present; compound added 50 minutes before agonist; 37° C; typical values; read-out: Affinity Constants (KB) Guinea Pig Trachea (converted)

compound: COc1ccc(NC(=S)NCC2C3C=CC(C3)C2C/C=C\CCCC(=O)O)cc1 (centres unmarked)
target of assay: thromboxane receptor sites (Cavia porcellus)
Kb: 154 nM

compound: COc1ccc(NC(=S)NC(C)CC2C3C=CC(C3)C2C/C=C\CCCC(=O)O)cc1 (centres unmarked)
target of assay: thromboxane receptor sites (Cavia porcellus)
Kb: 123 nM

compound: O=C(O)CCC/C=C\C[C@H]1[C@H]2CC[C@H](C2)[C@@H]1CNC(=O)Nc1ccccc1 (relative stereo)
target of assay: thromboxane receptor sites (Cavia porcellus)
Kb: 323 nM

compound: O=C(O)CCC/C=C\CC1C2C=CC(C2)C1CCNC(=O)Nc1ccccc1 (centres unmarked)
target of assay: thromboxane receptor sites (Cavia porcellus)
Kb: 196 nM

compound: COc1ccc(NC(=O)NCCC2C3C=CC(C3)C2C/C=C\CCCC(=O)O)cc1 (centres unmarked)
target of assay: thromboxane receptor sites (Cavia porcellus)
Kb: 145 nM
